Target: Methyl-CpG-binding domain protein 2 (Homo sapiens)
Sequence (Q9UBB5 whole entry, the tested form may be a part): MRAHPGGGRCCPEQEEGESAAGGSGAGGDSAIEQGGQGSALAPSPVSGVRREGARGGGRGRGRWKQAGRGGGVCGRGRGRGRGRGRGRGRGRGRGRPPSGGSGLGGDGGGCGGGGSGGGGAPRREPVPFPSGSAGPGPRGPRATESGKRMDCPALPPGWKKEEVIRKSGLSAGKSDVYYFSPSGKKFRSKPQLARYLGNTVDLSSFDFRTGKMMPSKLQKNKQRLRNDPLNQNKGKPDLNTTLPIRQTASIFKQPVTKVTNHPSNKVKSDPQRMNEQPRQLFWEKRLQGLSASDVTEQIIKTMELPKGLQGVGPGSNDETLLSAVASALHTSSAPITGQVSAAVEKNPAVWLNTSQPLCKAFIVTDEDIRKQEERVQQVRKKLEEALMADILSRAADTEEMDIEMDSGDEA
Assay: MBD2-DBD methyl-oligonucleotide interaction blockers – biochemical, 5-meCpG oligonucleotide, dose response (AID 720645)
pIC50: −log10 of the molar value.
Observable: pIC50

{"Compound": "COc1cc(C(c2c(C)[nH][nH]c2=O)c2c(C)[nH][nH]c2=O)cc([N+](=O)[O-])c1O", "Assay result": 4.36}
{"Compound": "O=C(O)CSc1cc(NS(=O)(=O)c2ccc(Cl)cc2)c2ccccc2c1O", "Assay result": 5.31}

a. COc1ccc(-c2csc(/C(C#N)=C/C3C=CC(=O)C([N+](=O)[O-])=C3)n2)cc1OC (centres undefined)
b. Cc1ccc2c(Cl)c(Cc3ccccc3)c(=S)[nH]c2n1
# input Of the pair a and b , name the member with the lesser recorded pIC50. // return label of chosen record
# output b
(b: 5.10, a: 5.32)
